# target_of_assay: T1, soluble human EREG fragment (EGF domain; 63Val to 108Leu) comprising a mature structure, R&D Systems cat. no. … (human, UniProt O14944 63-108)
# T1 construct: Bought protein; also called soluble EREG; recombinant human EREG
# test: ELISA, EREG fragment immobilized on immuno plate
measure: binding result

binder	result
anti-EREG mouse monoclonal antibody EP24 (B3#8) (antibody, mouse IgG1, V domains shown, Mouse IgG1/κ hybridoma antibody) VH: QVQLKESGPGLVAPSQSLSITCTVSGFSLSSYGVHWVRQPPGKGLEWLGVIWRDGSTTYNSALKSRLSISKDGSKSQVFLKMNSLQTDDTAMYYCARNWNGLMDYWGQGTSVTVSS VL: DIQMTQTTSSLSASLGDRVTISCRASQDISYYLNWYQQRPDGTVKLLIYYTSRLHSGVPSRFSGSGSGTESSLTISNLEQEDIATYFCQQGHTVPWTFGGGTKLEIK	binds
anti-EREG mouse monoclonal antibody EP27 (B3#18) (antibody, mouse IgG2b, V domains shown, also called B3#18_IgG2b) VH: EDQLQQSGAELVKPGASVKLSCTASGFNIKDTYIQWVKLRPEQGLEWIGRIDPLNGNTKYVPKFQGKATITADTSSNTAYLQLSSLTSEDTAVYYCVRSGTLFDFWGQGTTLTVSS VL: DIQMTQSPSSLSASLGGKVTITCKASQDIHKYIAWYQHKPGKGPRLLIQYTSTLQPGIPSRFSGSGSGRDYSFSISNLEPEDIATYYCLQYDNLRTFGGGTKLEIK	binds
